Measured values drawn from patent US4797400A for this set.

Experiment: Acute toxicity
Conditions: mouse, in vivo, po; male ddY mice; death observed for 7 days; Weil's method
Counter-ions that a name gives are not always drawn.
# reported LD50 at 168 h; entries follow
Measure: LD50 at 168 h

{"Compound": "COc1ccc(OC(=O)CN2CCN(Cc3ccc(OC)c(OC)c3OC)CC2)cc1.Cl.Cl", "Reported result": "4200 mg/kg"}
{"Compound": "NC[C@H]1CC[C@H](C(=O)Oc2ccc(CCC(=O)O)cc2)CC1 [Reference compound, Cetraxate hydrochloride, reference compound]", "Reported result": "> 8000 mg/kg"}
{"Compound": "COc1ccc(OC(=O)CN2CCN(Cc3cc(OC)c(OC)c(OC)c3)CC2)cc1.O.O=C(O)/C=C/C(=O)O.O=C(O)/C=C/C(=O)O", "Reported result": "4800 mg/kg"}
